Recorded TGI values for a group of compounds are listed next.
- Test system: LOX IMVI melanoma
- assay.info: NCI tumour cell line growth inhibition, 48 h

- compound: "C=CC(=O)N[C@@H]1CN(c2nc(Nc3cn(C)nc3OC)c3ncn(C)c3n2)C[C@H]1F"
  TGI: "> 100 µM"
- compound: "CC1(CO)C(O)CCC2(C)C1CCC1CC3CC12CCC3(O)CO (centres undefined)"
  TGI: "> 100 µM"
- compound: "CN(C)c1ccc(C(=S)c2ccc(N(C)C)cc2)cc1"
  TGI: "88.6 µM"
- compound: "O=[N+]([O-])c1cc(Br)cc2cc(Cl)cnc12"
  TGI: "> 100 µM"
- compound: "N#CCCN(CCC#N)c1ccc(/C=C(/NC(=O)c2cc([N+](=O)[O-])ccc2Cl)C(=O)N=[N+]=[N-])cc1"
  TGI: "> 100 µM"
- compound: "CN(C)c1ccc(/C=C/C(=O)c2ccc(Nc3nc(Nc4ccc(F)cc4)nc(Nc4ccc(F)cc4)n3)cc2)cc1"
  TGI: "50.7 µM"
- compound: "CC[C@H](C)[C@H](NC(=O)N(CCC#N)CCN(CCN(C(=O)N[C@@H](Cc1ccccc1)C(=O)OC)c1ccccc1)C(=O)N[C@H](C(=O)OC)C(C)C)C(=O)OC"
  TGI: "37.4 µM"
- compound: "CC1=C(C(=O)NNC(=O)Cc2ccccc2)CC(C(=O)NNC(=O)Cc2ccccc2)=C(C)N1"
  TGI: "> 100 µM"
- compound: "O=C(O)c1cc(N=Nc2ccc([N+](=O)[O-])cc2)ccc1O"
  TGI: "> 100 µM"

====

Recorded GI50 values for a group of compounds are listed next.
- Test system: BT-549 breast
- assay.info: NCI tumour cell line growth inhibition, 48 h

- smiles.record: "CC(C)C[C@H](CC(=O)O)C(=O)N[C@@H](Cc1c[nH]c2ccccc12)C(=O)N[C@@H](C)c1ccccc1"
  GI50: "> 25 µM"
- smiles.record: "CCN(C(=O)N1CCN(c2cc3c(cc2F)c(=O)c(C(=O)O)cn3C2CC2)CC1)c1nc(-c2ccccc2)cs1"
  GI50: "2.27 µM"
- smiles.record: "CCOC(=O)/C(=C/CC/C(C)=C/CC/C(C)=C/CCc1ccoc1)CC(=O)N1CCCCC1"
  GI50: "4.03 µM"
- smiles.record: "Cc1c2cnccc2c(C)c2c1c1cc(O)ccc1n2C(C)C"
  GI50: "1.11 µM"
- smiles.record: "O=c1cc(-c2ccc(Cl)cc2)[nH]c2ccccc12"
  GI50: "29.4 µM"
- smiles.record: "OCC#CCOCC#Cc1ccccc1C#CCOCC#CCO"
  GI50: "34.2 µM"

====

- Test system: KM20L2 colon
- assay.info: NCI tumour cell line growth inhibition, 48 h
Recorded TGI values for a group of compounds are listed next.

- compound: "c1ccc2c(c1)nnn2CNc1ccc(N2CCCCC2)cc1"
  TGI: "> 100 µM"
- compound: "Cc1noc2cccc(O)c12"
  TGI: "> 100 µM"
- compound: "C/C(NNC(=O)c1ccccc1O)=C1\\C=Nc2ccccc2S1"
  TGI: "> 100 µM"
- compound: "CC(Oc1cc2oc(=O)cc(-c3ccccc3)c2cc1Cl)C(=O)O (stereo not given)"
  TGI: "> 100 µM"
- compound: "O=C(Nc1cccc(C(F)(F)F)c1)C(=O)C(C(=O)c1ccc(Cl)c(Cl)c1)C1OC(=O)c2ccccc21 (stereo not given)"
  TGI: "> 100 µM"
- compound: "[N-]=[N+]=CC(=O)C1(C(=O)C=[N+]=[N-])CC1"
  TGI: "> 100 µM"
- compound: "N#C/C(=C\\c1ccc(O)c(O)c1)c1c(C#N)c(N)nn1-c1ccccc1"
  TGI: "> 100 µM"
- compound: "Cc1ccccc1NC(=O)CC1C(=O)Nc2ccccc2S1=O (stereo not given)"
  TGI: "> 100 µM"
- compound: "CC(=O)OC1C[C@H]2C(OC(=O)c3ccccc3)C3C4(OC(C)=O)COC4C[C@H](OC(C)=O)[C@@]3(C)C(OC(C)=O)[C@H](OC(C)=O)C(=C1C)C2(C)C (stereo not given in full)"
  TGI: "> 100 µM"
- compound: "CC1(CO)C(O)CCC2(C)C1CCC1CC3CC12CCC3(O)CO (stereo not given)"
  TGI: "> 100 µM"

====

- Tested on: NCI-H23 lung
- assay.info: NCI tumour cell line growth inhibition, 48 h
Recorded TGI values for a group of compounds are listed next.
quantity: TGI

- compound: "CCCCn1c(-c2ccccc2)cs/c1=N\\N=C1C=C(C(C)(C)C)C(=O)C(C(C)(C)C)=C1"
  quantity: "TGI"
  measured.value: "> 100 µM"
- compound: "Cc1c2cnccc2c(C)c2c1c1cc(O)ccc1n2C(C)C"
  quantity: "TGI"
  measured.value: "3.83 µM"
- compound: "COc1ccccc1C1C2=C(COC2=O)Oc2cc3c(cc21)OCO3 (configuration not stated)"
  quantity: "TGI"
  measured.value: "> 100 µM"
- compound: "CCO/C(O)=C(/C(=N)N1CCOCC1)C(=O)Nc1cccc(C(F)(F)F)c1"
  quantity: "TGI"
  measured.value: "> 100 µM"
- compound: "O=C(O)C1C2C=CC(O2)C1C(=O)NCc1cccnc1 (configuration not stated)"
  quantity: "TGI"
  measured.value: "> 100 µM"
- compound: "N/C(=N\\N=C\\c1cc2ccccc2s1)c1cnccn1"
  quantity: "TGI"
  measured.value: "> 100 µM"
- compound: "COc1ccc(C(=O)/C=C/c2sc(Cl)nc2Cl)cc1"
  quantity: "TGI"
  measured.value: "3.39 µM"
- compound: "C[C@H]1CCC/C=C/C2CC(OC(=O)CN(C)C)CC2C(OC(=O)CN(C)C)/C=C/C(=O)O1 (some centres not stated)"
  quantity: "TGI"
  measured.value: "1.92 µM"
- compound: "CC(C)C[S+]1C2=C([O-])CC(C)(C)CC2=Nc2ccccc21 (configuration not stated)"
  quantity: "TGI"
  measured.value: "> 100 µM"
- compound: "CCN(CC)CCNc1c2ccccc2nc2cccc([N+](=O)[O-])c12"
  quantity: "TGI"
  measured.value: "0.0188 µM"
- compound: "C/C=C1/CN2CCC34C(=C(C(=O)OC)C1CC23)Nc1ccc(O)cc14 (configuration not stated)"
  quantity: "TGI"
  measured.value: "> 100 µM"
- compound: "CC(=O)OCCOCn1c2ccccc2c2c3c(c4c5ccccc5n(COCCOC(C)=O)c4c21)C(=O)N(Cc1ccccc1)C3=O"
  quantity: "TGI"
  measured.value: "> 100 µM"

====

- Tested on: MCF7 breast
- assay.info: NCI tumour cell line growth inhibition, 48 h

- compound: "CN(C)c1ccc(/C=C/C(=O)c2ccc(Nc3nc(Nc4ccc(F)cc4)nc(Nc4ccc(F)cc4)n3)cc2)cc1"
  TGI: "> 100 µM"
- compound: "O=C1CC(c2ccc(Cl)cc2)C2(C(=O)NC(=S)NC2=O)C(c2ccc(Cl)cc2)C1 (stereo not given)"
  TGI: "32.1 µM"
- compound: "Cc1cccc2c(N)c3cccc(C(=O)NCC[N+](C)(C)Cc4ccc([N+](=O)[O-])n4C)c3nc12"
  TGI: "> 62.5 µM"
- compound: "C[C@H]1CCC/C=C/C2CC(OC(=O)CN(C)C)CC2C(OC(=O)CN(C)C)/C=C/C(=O)O1 (stereo not given in full)"
  TGI: "1.53 µM"
- compound: "COc1ccccc1-n1cnc2c1NC(C)(C)N=C2C(N)=O"
  TGI: "> 100 µM"
- compound: "Cc1c2cnccc2c(C)c2c1c1cc(O)ccc1n2C(C)C"
  TGI: "4.82 µM"
- compound: "O=CC(OC(=O)c1ccccc1)C(OC(=O)c1ccccc1)C(COC(c1ccccc1)(c1ccccc1)c1ccccc1)OC(=O)c1ccccc1 (stereo not given)"
  TGI: "23.7 µM"
- compound: "COC(CNC(=O)CNC(=O)c1ccc(C(F)(F)F)cc1)OC"
  TGI: "> 100 µM"
- compound: "O=Cc1c2c(cc3c1CC1(C3)Cc3cc4c(c(C=O)c3C1)CCCC4)CCCC2"
  TGI: "> 31.6 µM"
- compound: "C/C=C1\\CC(C(=O)OCC)CCCCCCC1=O (stereo not given)"
  TGI: "> 100 µM"
- compound: "COC(=O)[C@H](CNC(=O)/C=C/c1ccc(OC(C)=O)c(OC(C)=O)c1)NC(=O)/C=C/c1ccc(OC(C)=O)c(OC(C)=O)c1"
  TGI: "> 100 µM"
- compound: "CC1=C(C(=O)NNC(=O)Cc2ccccc2)CC(C(=O)NNC(=O)Cc2ccccc2)=C(C)N1"
  TGI: "> 100 µM"
- compound: "CC1(CO)C(O)CCC2(C)C1CCC1CC3CC12CCC3(O)CO (stereo not given)"
  TGI: "> 100 µM"
- compound: "Cc1ccsc1/C=N/NC1=NCCN1"
  TGI: "> 100 µM"
- compound: "CCOC(=O)/C(=C/CC/C(C)=C/CC/C(C)=C/CCc1ccoc1)CC(=O)N1CCCCC1"
  TGI: "5.92 µM"
- compound: "N=c1c2sc3nc4ccccc4n3c2ncn1Cc1ccccc1"
  TGI: "> 100 µM"
- compound: "CN1C(=O)N(C)C2(CCN(CC(CC3OCCO3)c3ccc(F)cc3)CC2)C1=O (stereo not given)"
  TGI: "> 100 µM"
- compound: "C1=N[C@]23C(=N[C@H](N=C2NCc2ccco2)[C@]24N=CNC2=N[C@H]3N=C4NCc2ccco2)N1"
  TGI: "> 100 µM"
- compound: "C[C@@H](O)[C@@H](C)Oc1nc(Nc2ccc(S(=N)(=O)C3CC3)cc2)ncc1C(F)(F)F (stereo not given in full)"
  TGI: "29.7 µM"
- compound: "CCN(CC)CCNc1c2ccccc2nc2cccc([N+](=O)[O-])c12"
  TGI: "0.0063 µM"

FYI, the data here is from PubChem BioAssay (NCI).
